Source: patent US8685974B2

system: Fusarium graminearum; assay type: cell-based; details: 50 μM; 7 days at 28° C.
Reported % Inhibition of DON/AcDON at 50 μM is given for each of the following compounds.

Smiles data | Tested target | U | % Inhibition of DON/AcDON at 50 μM
CC(C)n1cc(-c2ccnc(NC(=O)C3CC3)c2)c(-c2ccc(Cl)s2)n1 | Fusarium graminearum | % | 99
CC(C)C(=O)Nc1cc(-c2cn(C)nc2-c2ccc(Cl)s2)ccn1 | Fusarium graminearum | % | 99
CC(C)Cn1cc(-c2ccncc2)c(-c2ccc(F)s2)n1 | Fusarium graminearum | % | 99
CCC(CC)n1cc(-c2ccncc2)c(-c2ccc(Br)s2)n1 | Fusarium graminearum | % | 99
Cc1ccc(-c2nn(C(C)C)cc2-c2ccncc2)s1 | Fusarium graminearum | % | 99
